- TARGET ENTITY: progesterone receptor (PR) (Homo sapiens)
- Construct: in live, intact (whole) cells using the human breast carcinoma T47D cell line; endogenous in cells; host or cells: T47D human breast carcinoma cells
- TEST DESCRIPTION: T47D alkaline phosphatase activity assay to identify progestins or antiprogestins
- Format: cell-based
- CONDITION DETAILS: T47D cells
RESULT TYPE: pIC50
Please treat pIC50 as minus the base-10 logarithm of the molar concentration.

Req: Provide the documented pIC50 with progesterone receptor (PR) (Homo sapiens) as the system for `CC1(C)COC(=O)N1c1nc(-c2ccc(C#N)cc2)cs1`
Resp: 8.51

----------
- TARGET ENTITY: progesterone receptor (PR) (Homo sapiens, UniProt P06401)
- Construct: in live, intact (whole) cells using the human breast carcinoma T47D cell line; endogenous in cells
- Sequence (P06401 1-933): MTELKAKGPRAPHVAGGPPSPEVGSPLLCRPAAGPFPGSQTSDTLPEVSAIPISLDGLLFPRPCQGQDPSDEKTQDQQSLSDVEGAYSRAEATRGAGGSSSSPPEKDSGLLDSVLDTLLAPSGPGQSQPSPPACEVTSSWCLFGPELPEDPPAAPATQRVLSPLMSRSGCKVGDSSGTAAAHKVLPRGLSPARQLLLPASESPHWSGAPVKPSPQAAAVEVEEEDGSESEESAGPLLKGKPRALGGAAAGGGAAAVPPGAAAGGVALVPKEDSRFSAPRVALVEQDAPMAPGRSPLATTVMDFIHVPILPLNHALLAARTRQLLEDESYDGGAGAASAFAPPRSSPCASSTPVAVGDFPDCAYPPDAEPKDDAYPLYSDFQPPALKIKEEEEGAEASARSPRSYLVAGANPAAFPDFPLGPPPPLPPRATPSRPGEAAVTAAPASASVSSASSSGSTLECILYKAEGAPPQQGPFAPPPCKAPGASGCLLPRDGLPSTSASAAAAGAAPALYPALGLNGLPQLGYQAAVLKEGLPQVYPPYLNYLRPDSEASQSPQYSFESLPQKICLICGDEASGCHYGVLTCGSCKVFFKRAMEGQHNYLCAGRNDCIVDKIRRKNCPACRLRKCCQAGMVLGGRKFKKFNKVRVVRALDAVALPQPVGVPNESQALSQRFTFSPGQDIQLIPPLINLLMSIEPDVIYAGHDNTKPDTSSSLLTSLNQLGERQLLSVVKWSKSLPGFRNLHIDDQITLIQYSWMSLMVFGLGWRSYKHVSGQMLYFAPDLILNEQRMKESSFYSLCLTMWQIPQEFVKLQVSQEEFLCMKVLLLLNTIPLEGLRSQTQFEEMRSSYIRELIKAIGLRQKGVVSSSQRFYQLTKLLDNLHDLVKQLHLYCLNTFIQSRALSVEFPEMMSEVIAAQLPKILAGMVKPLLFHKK
- TEST DESCRIPTION: PR whole cell binding in T47D cells with 3H-progesterone as labeled ligand
- CONDITION DETAILS: live, intact T47D cells; 3H-progesterone labeled ligand
RESULT TYPE: pKi
Remember, pKi is on a log scale: it is -log10 of the molar concentration.

Req: GET /values?readout=pKi&item= `CC1(C)COC(=O)N1c1nc(-c2ccc(C#N)cc2)cs1`
Resp: 8.31

The measured values listed here are drawn from patent US20080234340A1.
